Biological target: fatty acyl-CoA reductase (FACoAR) from M. aquaeolei VT8 (Marinobacter nauticus (Marinobacter aquaeolei), UniProt A1U3L3)
Sequence (A1U3L3 1-661): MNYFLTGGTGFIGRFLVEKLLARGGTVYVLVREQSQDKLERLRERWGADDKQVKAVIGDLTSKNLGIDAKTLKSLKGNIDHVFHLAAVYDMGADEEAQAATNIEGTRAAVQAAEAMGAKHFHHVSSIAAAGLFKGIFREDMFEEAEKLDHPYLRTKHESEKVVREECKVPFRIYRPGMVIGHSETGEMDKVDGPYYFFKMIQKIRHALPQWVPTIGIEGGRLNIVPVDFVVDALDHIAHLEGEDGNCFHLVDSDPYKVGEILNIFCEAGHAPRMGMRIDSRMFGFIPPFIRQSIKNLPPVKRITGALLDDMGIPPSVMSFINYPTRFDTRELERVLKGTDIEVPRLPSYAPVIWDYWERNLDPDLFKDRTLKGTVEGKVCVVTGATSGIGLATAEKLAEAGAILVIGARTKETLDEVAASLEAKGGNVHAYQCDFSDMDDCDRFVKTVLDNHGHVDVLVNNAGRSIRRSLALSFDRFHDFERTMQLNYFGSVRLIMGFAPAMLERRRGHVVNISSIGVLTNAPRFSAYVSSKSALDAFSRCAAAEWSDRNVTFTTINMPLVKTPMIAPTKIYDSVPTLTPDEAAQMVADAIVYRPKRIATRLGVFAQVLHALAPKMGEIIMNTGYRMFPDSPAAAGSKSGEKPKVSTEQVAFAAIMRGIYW
Experiment: Continuous spectrophotometric NADPH assay (decrease of NADPH at 340 nm)
Assay type: biochemical
Details: percent of the specific activity of decanal; 60 μm aldehyde
measurement_kind: % Specific Activity of Decanal

>  <compound>
CCC=O [Propanal]

>  <% Specific Activity of Decanal>
<1%

$$$$

Which % Specific Activity of Decanal value is on record for CCCC/C=C\CCCCCCCCCC=O [Cis-11-hexadecenal] ?
63%

Then O=Cc1ccc2ccccc2c1 [2-Naphthaldehyde] ?
3%

Then CCCCCCCC=O [Octanal] ?
33%

* * *

biological target: fatty acyl-CoA reductase (FACoAR) from M. aquaeolei VT8 (Marinobacter nauticus (Marinobacter aquaeolei))
measurement_kind: Ki (nM)
Answer with a number only, understood to be in nM.

Which Ki value is on record for CCCCCCCCCCCCCCCC(=O)SCCNC(=O)CCNC(=O)[C@H](O)C(C)(C)COP(=O)(O)OP(=O)(O)OC[C@H]1O[C@@H](n2cnc3c(N)ncnc32)[C@H](O)[C@@H]1OP(=O)(O)O ?
1900

* * *

Reported values of % Specific Activity of Palmitoyl-CoA for individual entries
Target: fatty acyl-CoA reductase (FACoAR) from M. aquaeolei VT8 (Marinobacter nauticus (Marinobacter aquaeolei), UniProt A1U3L3)
Sequence (A1U3L3 1-661): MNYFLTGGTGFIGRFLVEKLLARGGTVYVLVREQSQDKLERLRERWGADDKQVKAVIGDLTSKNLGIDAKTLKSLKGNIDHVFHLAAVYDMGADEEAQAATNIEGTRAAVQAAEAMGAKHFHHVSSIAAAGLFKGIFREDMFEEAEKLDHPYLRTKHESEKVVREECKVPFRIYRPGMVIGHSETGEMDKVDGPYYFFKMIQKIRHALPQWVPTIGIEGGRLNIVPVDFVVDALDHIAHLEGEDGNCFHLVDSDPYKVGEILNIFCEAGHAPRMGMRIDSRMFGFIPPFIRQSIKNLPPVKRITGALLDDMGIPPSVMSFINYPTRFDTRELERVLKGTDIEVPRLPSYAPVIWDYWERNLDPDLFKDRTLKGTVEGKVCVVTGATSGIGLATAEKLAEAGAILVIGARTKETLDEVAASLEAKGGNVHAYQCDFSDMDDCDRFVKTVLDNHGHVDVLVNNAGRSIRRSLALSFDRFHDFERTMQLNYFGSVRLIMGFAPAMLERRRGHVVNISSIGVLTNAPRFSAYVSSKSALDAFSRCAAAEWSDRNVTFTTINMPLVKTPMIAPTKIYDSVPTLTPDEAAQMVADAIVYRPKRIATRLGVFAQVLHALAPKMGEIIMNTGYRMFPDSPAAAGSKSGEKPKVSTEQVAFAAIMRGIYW
Assay: Continuous spectrophotometric DTNB assay (release of free CoA)
Type: biochemical
Conditions: percent of the specific activity of palmitoyl-CoA; 6 μM substrate
Answer with a number only, understood to be in %.

>  <query_smiles>
CCCCCCCCCCCCCC(=O)SCCNC(=O)CCNC(=O)[C@H](O)C(C)(C)COP(=O)(O)OP(=O)(O)OC[C@H]1O[C@@H](n2cnc3c(N)ncnc32)[C@H](O)[C@@H]1OP(=O)(O)O

>  <result>
58

$$$$
>  <query_smiles>
CCCCCCCCCCCC(=O)SCCNC(=O)CCNC(=O)[C@H](O)C(C)(C)COP(=O)(O)OP(=O)(O)OC[C@H]1O[C@@H](n2cnc3c(N)ncnc32)[C@H](O)[C@@H]1OP(=O)(O)O

>  <result>
80

$$$$

Attention now turns to another entry.
Which % Specific Activity of Palmitoyl-CoA value is on record for CCCCCCCC(=O)SCCNC(=O)CCNC(=O)[C@H](O)C(C)(C)COP(=O)(O)OP(=O)(O)OC[C@H]1O[C@@H](n2cnc3c(N)ncnc32)[C@H](O)[C@@H]1OP(=O)(O)O ?
34

* * *

molecular target: fatty acyl-CoA reductase (FACoAR) from M. aquaeolei VT8 (Marinobacter nauticus (Marinobacter aquaeolei), UniProt A1U3L3); test: Continuous spectrophotometric NADPH assay (decrease of NADPH at 340 nm); format: biochemical; conditions: 60 μm of the respective aldehyde as substrate
Reported values of Rate of Reaction (nmol NADP^+ min^−1 mg proten^−1) for individual entries

>  <query_smiles>
CC=O

>  <result>
54 ± 6.0 nmol NADP^+ min^−1 mg proten^−1

$$$$

Which Rate of Reaction (nmol NADP^+ min^−1 mg proten^−1) value is on record for CCC=O ?
43 ± 6.0 nmol NADP^+ min^−1 mg proten^−1

* * *

biological target: fatty acyl-CoA reductase (FACoAR) from M. aquaeolei VT8 (Marinobacter nauticus (Marinobacter aquaeolei), UniProt A1U3L3); assay: Continuous spectrophotometric NADPH assay (decrease of NADPH at 340 nm); assay type: biochemical; settings: percent of the specific activity of decanal; 60 μm aldehyde
Reported values of % Specific Activity of Decanal for individual entries

Some solved cases for reference:
>  <query_smiles>
CCCCCCCCCCCC=O

>  <% Specific Activity of Decanal>
74%

$$$$
>  <query_smiles>
CC=O

>  <% Specific Activity of Decanal>
<1%

$$$$

Which % Specific Activity of Decanal value is on record for CCCCCCCCCC=O ?
100%

Then CCCCCC=O ?
10%
